The values you see were collected from paper PMC11100219.

# Test system: S. epidermidis (ATCC 35984) biofilm
# assay.protocol: Biofilm-formation inhibitory activity, crystal violet staining
# Type: cell-based, Staphylococcus epidermidis
# study.conditions: minimum concentration inhibiting biofilm formation more than 90%; CV staining, TSB, 10^6 CFU/mL, 24 h, 37°C, 0.98-250 µg/mL
Residues, ends and D or L forms follow the SMILES beside them.
property: MBIC90 (µg/mL)
Quick note: give the figure in µg/mL, leave out the unit.

Answered examples (2):
CC[C@H](C)[C@H](NC(=O)[C@H](CCCCN)NC(=O)[C@H](CCCCN)NC(=O)[C@@H](NC(=O)[C@H](CC(C)C)NC(=O)[C@@H](N)Cc1ccccc1)C(C)C)C(=O)N[C@@H](CCCCN)C(=O)N[C@@H](CCCCN)C(=O)N[C@H](C(=O)N[C@@H](CC(C)C)C(=O)N[C@@H](CCCNC(=N)N)C(=O)N[C@@H](CCCNC(=N)N)C(N)=O)[C@@H](C)CC [BiF2_5K7K] (H-FLVKKIKKILRR-NH2; N-terminus assumed) | 31.25
CC[C@H](C)[C@H](NC(=O)[C@H](CC(C)C)NC(=O)[C@H](CCCCN)NC(=O)[C@@H](NC(=O)[C@H](CC(C)C)NC(=O)[C@@H](N)Cc1ccccc1)C(C)C)C(=O)N[C@@H](CC(C)C)C(=O)N[C@@H](CCCCN)C(=O)N[C@H](C(=O)N[C@@H](CC(C)C)C(=O)N[C@@H](CCCNC(=N)N)C(=O)N[C@@H](CCCNC(=N)N)C(N)=O)[C@@H](C)CC [BiF2] (H-FLVKLILKILRR-NH2; N-terminus assumed) | 250

Quick one: MBIC90 for CC[C@H](C)[C@H](NC(=O)[C@H](CC(C)C)NC(=O)[C@H](CCCCN)NC(=O)[C@@H](NC(=O)[C@H](CC(C)C)NC(=O)[C@@H](N)Cc1ccccc1)C(C)C)C(=O)N[C@@H](CCCCN)C(=O)N[C@@H](CCCCN)C(=O)N[C@H](C(=O)N[C@@H](CC(C)C)C(=O)N[C@@H](CCCNC(=N)N)C(=O)N[C@@H](CCCNC(=N)N)C(N)=O)[C@@H](C)CC [BiF2_7K] (H-FLVKLIKKILRR-NH2; N-terminus assumed) ? 7.81

###

# Tested on: human red blood cells (hRBCs)
# assay.protocol: Hemolysis activity (hemoglobin release)
# Format: cell-based
# study.conditions: peptide concentration causing 10% hemolysis of hRBCs; 2% hRBCs in 10 mM PBS, 1 h, 37°C, OD405
Residues, ends and D or L forms follow the SMILES beside them.
property: MHC, minimum hemolytic concentration (µg/mL)
Quick note: give the figure in µg/mL, leave out the unit.

Answered examples (2):
CC[C@H](C)[C@H](NC(=O)[C@H](CC(C)C)NC(=O)[C@H](CCCCN)NC(=O)[C@@H](NC(=O)[C@H](CC(C)C)NC(=O)[C@@H](N)Cc1ccccc1)C(C)C)C(=O)N[C@@H](CCCCN)C(=O)N[C@@H](CCCCN)C(=O)N[C@H](C(=O)N[C@@H](CC(C)C)C(=O)N[C@@H](CCCNC(=N)N)C(=O)N[C@@H](CCCNC(=N)N)C(N)=O)[C@@H](C)CC [BiF2_7K] (H-FLVKLIKKILRR-NH2; N-terminus assumed) | 15.63
CC[C@H](C)[C@H](NC(=O)[C@H](CC(C)C)NC(=O)[C@H](CCCCN)NC(=O)[C@@H](NC(=O)[C@H](CC(C)C)NC(=O)[C@@H](N)Cc1ccccc1)C(C)C)C(=O)N[C@@H](CC(C)C)C(N)=O [BiF] (H-FLVKLIL-NH2; N-terminus assumed) | 15.63

Now consider the entry below.
Quick one: MHC, minimum hemolytic concentration for CC[C@H](C)[C@H](NC(=O)[C@H](CC(C)C)NC(=O)[C@H](CCCCN)NC(=O)[C@@H](NC(=O)[C@H](CC(C)C)NC(=O)[C@@H](N)Cc1ccccc1)C(C)C)C(=O)N[C@@H](CC(C)C)C(=O)N[C@@H](CCCCN)C(=O)N[C@H](C(=O)N[C@@H](CC(C)C)C(=O)N[C@@H](CCCNC(=N)N)C(=O)N[C@@H](CCCNC(=N)N)C(N)=O)[C@@H](C)CC [BiF2] (H-FLVKLILKILRR-NH2; N-terminus assumed) ? 1.95

###

# Tested on: Staphylococcus aureus ATCC 25923
# assay.protocol: Broth microdilution MIC / MBC
# Assay type: cell-based
# study.conditions: plating of non-turbid wells on TSA, 24 h, 37°C
Residues, ends and D or L forms follow the SMILES beside them.
Listing: MBC of selected molecules
Quick note: give the figure in µg/mL, leave out the unit.

CC[C@H](C)[C@H](NC(=O)[C@H](CC(C)C)NC(=O)[C@H](CCCCN)NC(=O)[C@@H](NC(=O)[C@H](CC(C)C)NC(=O)[C@@H](N)Cc1ccccc1)C(C)C)C(=O)N[C@@H](CCCCN)C(=O)N[C@@H](CCCCN)C(=O)N[C@H](C(=O)N[C@@H](CC(C)C)C(=O)N[C@@H](CCCNC(=N)N)C(=O)N[C@@H](CCCNC(=N)N)C(N)=O)[C@@H](C)CC [BiF2_7K] (H-FLVKLIKKILRR-NH2; N-terminus assumed) | 15.6

Quick one: MBC for CC[C@H](C)[C@H](NC(=O)[C@H](CC(C)C)NC(=O)[C@H](CCCCN)NC(=O)[C@@H](NC(=O)[C@H](CC(C)C)NC(=O)[C@@H](N)Cc1ccccc1)C(C)C)C(=O)N[C@@H](CC(C)C)C(=O)N[C@@H](CCCCN)C(=O)N[C@H](C(=O)N[C@@H](CC(C)C)C(=O)N[C@@H](CCCNC(=N)N)C(=O)N[C@@H](CCCNC(=N)N)C(N)=O)[C@@H](C)CC [BiF2] (H-FLVKLILKILRR-NH2; N-terminus assumed) ? 62.5

###

# System: Escherichia coli ATCC 25922
# assay.protocol: Broth microdilution MIC / MBC
# Format: cell-based
# study.conditions: plating of non-turbid wells on TSA, 24 h, 37°C
Residues, ends and D or L forms follow the SMILES beside them.
Listing: MBC of selected molecules

Answered examples (3):
CC[C@H](C)[C@H](NC(=O)[C@H](CC(C)C)NC(=O)[C@H](CCCCN)NC(=O)[C@@H](NC(=O)[C@H](CC(C)C)NC(=O)[C@@H](N)Cc1ccccc1)C(C)C)C(=O)N[C@@H](CC(C)C)C(=O)N[C@@H](CCCCN)C(=O)N[C@H](C(=O)N[C@@H](CC(C)C)C(=O)N[C@@H](CCCNC(=N)N)C(=O)N[C@@H](CCCNC(=N)N)C(N)=O)[C@@H](C)CC [BiF2] (H-FLVKLILKILRR-NH2; N-terminus assumed) | 31.2 µg/mL
CC[C@H](C)[C@H](NC(=O)[C@H](CCCCN)NC(=O)[C@H](CCCCN)NC(=O)[C@@H](NC(=O)[C@H](CC(C)C)NC(=O)[C@@H](N)Cc1ccccc1)C(C)C)C(=O)N[C@@H](CCCCN)C(=O)N[C@@H](CCCCN)C(=O)N[C@H](C(=O)N[C@@H](CC(C)C)C(=O)N[C@@H](CCCNC(=N)N)C(=O)N[C@@H](CCCNC(=N)N)C(N)=O)[C@@H](C)CC [BiF2_5K7K] (H-FLVKKIKKILRR-NH2; N-terminus assumed) | 250 µg/mL
CC[C@H](C)[C@H](NC(=O)[C@H](CC(C)C)NC(=O)[C@H](CCCCN)NC(=O)[C@@H](NC(=O)[C@H](CC(C)C)NC(=O)[C@@H](N)Cc1ccccc1)C(C)C)C(=O)N[C@@H](CCCCN)C(=O)N[C@@H](CCCCN)C(=O)N[C@H](C(=O)N[C@@H](CC(C)C)C(=O)N[C@@H](CCCNC(=N)N)C(=O)N[C@@H](CCCNC(=N)N)C(N)=O)[C@@H](C)CC [BiF2_7K] (H-FLVKLIKKILRR-NH2; N-terminus assumed) | 31.2 µg/mL

Now consider the entry below.
Quick one: MBC for CC[C@H](C)[C@H](NC(=O)[C@H](CC(C)C)NC(=O)[C@H](CCCCN)NC(=O)[C@@H](NC(=O)[C@H](CC(C)C)NC(=O)[C@@H](N)Cc1ccccc1)C(C)C)C(=O)N[C@@H](CC(C)C)C(N)=O [BiF] (H-FLVKLIL-NH2; N-terminus assumed) ? > 250 µg/mL

###

MIC, Staphylococcus aureus ATCC 25923: measured values
Residues, ends and D or L forms follow the SMILES beside them.
Quick note: give the figure in µg/mL, leave out the unit.

CC[C@H](C)[C@H](NC(=O)[C@H](CC(C)C)NC(=O)[C@H](CCCCN)NC(=O)[C@@H](NC(=O)[C@H](CC(C)C)NC(=O)[C@@H](N)Cc1ccccc1)C(C)C)C(=O)N[C@@H](CC(C)C)C(=O)N[C@@H](CCCCN)C(=O)N[C@H](C(=O)N[C@@H](CC(C)C)C(=O)N[C@@H](CCCNC(=N)N)C(=O)N[C@@H](CCCNC(=N)N)C(N)=O)[C@@H](C)CC [BiF2] (H-FLVKLILKILRR-NH2; N-terminus assumed) | 62.5

Now consider the entry below.
Quick one: MIC for CC[C@H](C)[C@H](NC(=O)[C@H](CC(C)C)NC(=O)[C@H](CCCCN)NC(=O)[C@@H](NC(=O)[C@H](CC(C)C)NC(=O)[C@@H](N)Cc1ccccc1)C(C)C)C(=O)N[C@@H](CCCCN)C(=O)N[C@@H](CCCCN)C(=O)N[C@H](C(=O)N[C@@H](CC(C)C)C(=O)N[C@@H](CCCNC(=N)N)C(=O)N[C@@H](CCCNC(=N)N)C(N)=O)[C@@H](C)CC [BiF2_7K] (H-FLVKLIKKILRR-NH2; N-terminus assumed) ? 15.6
